Overview of recorded IC50 for various compounds
# Tgt: UniProtKB P52333
# Sequence (P52333 whole entry): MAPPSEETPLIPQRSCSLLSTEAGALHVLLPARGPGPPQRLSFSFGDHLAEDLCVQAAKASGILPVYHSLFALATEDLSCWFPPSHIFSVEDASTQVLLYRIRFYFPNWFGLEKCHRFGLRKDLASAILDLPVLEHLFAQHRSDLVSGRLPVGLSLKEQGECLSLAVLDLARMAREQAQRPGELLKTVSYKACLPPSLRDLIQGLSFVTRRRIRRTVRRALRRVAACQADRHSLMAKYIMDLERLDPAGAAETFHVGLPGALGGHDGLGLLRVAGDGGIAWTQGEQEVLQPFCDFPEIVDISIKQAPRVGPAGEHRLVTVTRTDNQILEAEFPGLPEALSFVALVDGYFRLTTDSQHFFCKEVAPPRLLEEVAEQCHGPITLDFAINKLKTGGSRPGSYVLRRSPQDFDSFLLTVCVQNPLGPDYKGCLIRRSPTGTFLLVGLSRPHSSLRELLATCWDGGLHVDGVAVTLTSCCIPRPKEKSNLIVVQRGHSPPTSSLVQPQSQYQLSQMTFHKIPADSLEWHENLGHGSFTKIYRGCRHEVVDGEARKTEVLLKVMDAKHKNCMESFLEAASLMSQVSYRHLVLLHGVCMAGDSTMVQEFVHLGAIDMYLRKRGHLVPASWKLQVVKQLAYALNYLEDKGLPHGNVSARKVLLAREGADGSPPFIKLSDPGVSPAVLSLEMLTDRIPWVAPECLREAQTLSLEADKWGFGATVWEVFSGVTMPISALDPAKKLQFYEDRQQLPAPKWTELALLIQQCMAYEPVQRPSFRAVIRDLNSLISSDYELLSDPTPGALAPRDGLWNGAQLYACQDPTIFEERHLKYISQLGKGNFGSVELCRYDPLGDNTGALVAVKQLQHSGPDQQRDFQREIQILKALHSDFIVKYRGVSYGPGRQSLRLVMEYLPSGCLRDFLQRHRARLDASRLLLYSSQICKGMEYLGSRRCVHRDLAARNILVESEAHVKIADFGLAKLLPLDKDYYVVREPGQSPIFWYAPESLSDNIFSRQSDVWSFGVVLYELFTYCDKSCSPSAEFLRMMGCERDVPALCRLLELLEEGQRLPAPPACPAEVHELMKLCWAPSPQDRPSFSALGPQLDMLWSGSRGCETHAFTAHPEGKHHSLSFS
# Test: JAK kinase activity, homogeneous time-resolved fluorescence (JAK3 reaction system)
# Format: biochemical
# Measurement Parameters: ATP 2 μM, JAK3 protein 0.04 ng/μL; read-out: JAK 3 activity
Value Type: IC50

[
  {
    "Compound": "O=C1NCCCCOCc2cc(ccc2OC2CC2)Nc2nccc(n2)-c2ccc1cc2[N+](=O)[O-] [Example 73]",
    "Readout Value": "101 to 1000 nM"
  },
  {
    "Compound": "O=C1NCCCCOCc2cc(ccc2OC2CCOCC2)Nc2nccc(n2)-c2ccc1cc2[N+](=O)[O-] [Example 61]",
    "Readout Value": "101 to 1000 nM"
  },
  {
    "Compound": "CC1CCOCc2cc(ccc2OC2CC2)Nc2nccc(n2)-c2ccc(cc2[N+](=O)[O-])C(=O)NC1 (stereo not drawn) [Example 158]",
    "Readout Value": "101 to 1000 nM"
  },
  {
    "Compound": "Nc1cc2ccc1-c1ccnc(n1)Nc1ccc(OCC3COC3)c(c1)COc1ccc(cc1)NC2=O [Example 214]",
    "Readout Value": "11 to 100 nM"
  },
  {
    "Compound": "O=C1Nc2ccc(cc2)OCc2cc(ccc2OC2CCCC2)Nc2nccc(n2)-c2ccc1cc2O [Example 215]",
    "Readout Value": "11 to 100 nM"
  },
  {
    "Compound": "O=C1NCCCCCCOCc2cc(ccc2N2CCOCC2)Nc2nccc(n2)-c2ccc1cc2[N+](=O)[O-] [Example 56]",
    "Readout Value": "1000 to 10000 nM"
  },
  {
    "Compound": "Nc1cc2ccc1-c1ccnc(n1)Nc1ccc(OC3CC3)c(c1)COCCCCNC2=O [Example 74]",
    "Readout Value": "< 10 nM"
  },
  {
    "Compound": "COc1cnc2nc1-c1ccc(c(F)c1)C(=O)NCCCCOCc1cc(ccc1N1CCOCC1)N2 [Example 58]",
    "Readout Value": "11 to 100 nM"
  },
  {
    "Compound": "Nc1cc2ccc1-c1ccnc(n1)Nc1ccc(OCC3CCCOC3)c(c1)COCCCCNC2=O (stereo not drawn) [Example 147]",
    "Readout Value": "< 10 nM"
  }
]
